target: ACC1 (Homo sapiens, UniProt Q13085); construct: purchased BPS bioscience; experiment: In vitro inhibition of ACC1 activity, ADP-Glo Kinase Analysis; format: biochemical; conditions: 1 nM ACC1, 10 μM acetyl-CoA, 20 μM ATP
IC50 reference

COc1ccccc1[C@H](CN1c2sc(-c3ncco3)c(C)c2C(=O)[C@]2(C[C@H](C(=O)NCC(=O)O)C2)C1=O)OC1CCOCC1 [Compound 10]; < 10 nM

In: Request the reported IC50 associated with COc1ccccc1[C@H](CN1C(=O)C2(CCN(C(=O)NCC(=O)O)CC2)C(=O)c2c1sc(-c1ncco1)c2C)OC1CCOCC1 [Compound 29]
Out: < 10 nM
